Below, each entry is listed with its recorded conc. for 2-fold expression (nM) mean.
Test system: B16/BL6 cells
experimental details: MHC class-I molecule expression promoting activity
Assay type: cell-based, mouse
condition summary: mean of a plurality of assays; 72 hours
Non-standard residues stand in square brackets, D forms with d. Residues, ends and D or L forms follow the SMILES beside them. ξ: configuration not given here. *: point of attachment. d1Nal = N[C@H](Cc1cccc2ccccc12)C(=O)O; Asu = N[C@@H](CCCCCC(=O)O)C(=O)O; dTic = O=C(O)[C@H]1Cc2ccccc2CN1; Ile(3ξ) = CCC(C)[C@H](N)C(=O)O; Pip = O=C(O)[C@@H]1CCCCN1; ξPip = O=C(O)C1CCCCN1; Sar = CNCC(=O)O; NHOH = ON*
metric name: conc. for 2-fold expression (nM) mean

compound: CC(C)C[C@@H]1NC(=O)[C@@H](Cc2ccccc2)NC(=O)[C@H](CCCCCC(=O)NO)NC(=O)C2CCCCN2C1=O (stereo partly drawn) [HDA-12, cyclo(-Asu(NHOH)-D-Phe-Leu-Pip-)] (cyclo([Asu](NHOH)[dF]L[ξPip]))
recorded value: 2.75
//
compound: CN1CC(=O)N[C@@H](CCCCCC(=O)NO)C(=O)N[C@@H](Cc2ccccc2)C(=O)N[C@@H](Cc2ccccc2)C1=O [HDA-40, cyclo(-L-Asu(NHOH)-L-Phe-L-Phe-Sar-)] (cyclo([Asu](NHOH)FF[Sar]))
recorded value: 748
//
compound: O=C(CCCCC[C@@H]1NC(=O)[C@@H](Cc2ccccc2)NC(=O)[C@H](Cc2ccccc2)NC(=O)[C@H]2CCCN2C1=O)NO [HDA-37, cyclo(-L-Asu(NHOH)-D-Pro-L-Phe-D-Phe-)] (cyclo([Asu](NHOH)[dP]F[dF]))
recorded value: 320
//
compound: CCC(C)[C@@H]1NC(=O)[C@@H](Cc2cccc3ccccc23)NC(=O)[C@H](CCCCCC(=O)NO)NC(=O)[C@H]2CCCN2C1=O (stereo partly drawn) [HDA-47, cyclo(-L-Asu(NHOH)-D-Naf-L-Ile-D-Pro-)] (cyclo([Asu](NHOH)[d1Nal][Ile(3ξ)][dP]))
recorded value: 9.59
//
compound: CC[C@H](C)[C@@H]1NC(=O)[C@@H](Cc2ccc(OC)cc2)NC(=O)[C@H](CCCCCC(=O)NO)NC(=O)[C@H]2Cc3ccccc3CN2C1=O [HDA-52] (cyclo([Asu](NHOH)[dY](Me)I[dTic]))
recorded value: 0.191
//
compound: O=C(CCCCC[C@@H]1NC(=O)[C@@H]2CCCN2C(=O)[C@@H](Cc2ccccc2)NC(=O)[C@H](Cc2ccccc2)NC1=O)NO [HDA-39, cyclo(-L-Asu(NHOH)-L-Phe-D-Phe-L-Pro-)] (cyclo([Asu](NHOH)F[dF]P))
recorded value: 65800
//
compound: CC(C)C[C@@H]1NC(=O)[C@@H](Cc2ccccc2)NC(=O)[C@H](CCCCCC(=O)NO)NC(=O)[C@@H]2CCCCN2C1=O [HDA-53, cyclo(-L-Asu(NHOH)-D-Phe-L-Leu-L-Pip-)] (cyclo([Asu](NHOH)[dF]L[Pip]))
recorded value: 19.8
//
compound: O=C(CCCCC[C@@H]1NC(=O)[C@H]2CCCN2C(=O)[C@H](Cc2ccccc2)NC(=O)[C@@H](Cc2ccccc2)NC1=O)NO [HDA-27, cyclo(-L-Asu(NHOH)-D-Phe-L-Phe-D-Pro-)] (cyclo([Asu](NHOH)[dF]F[dP]))
recorded value: 3.01
